IC50 values, listed per item
- Test system: K98450-129-R-PDC complex spheroid growth, percent test/control
- ASSAY_OVERVIEW: Anticancer human tumor K98450-129-R-PDC patient-derived colon adenocarcinoma cell line growth inhibition [RAS]
- CONDITION_CONTEXT: curve of first compound; second compound 0.000949 µM
Give just the numeric value; nM need not be written.

Request: Give its IC50 value. Item: Cc1nc(N2CCC3(CC2)COC(C)C3N)c(CO)nc1Sc1ccnc(N)c1Cl (configuration not stated) + CCn1c(-c2cccnc2C(C)OC)c2c3cc(ccc31)N1CCOC(CC(NC(=O)C(C(C)C)N(C)C(=O)C3(F)CCN(C(=O)C#CC(C)(C)N(C)C)CC3)C(=O)N3CCCC(N3)C(=O)OCC(C)(C)C2)C1
Result: 365

Request: Give its IC50 value. Item: Cc1nc(N2CCC3(CC2)COC(C)C3N)c(CO)nc1Sc1ccnc(N)c1Cl (configuration not stated) + CCn1c(-c2cc(N3CCN(C)CC3)cnc2C(C)OC)c2c3cc(ccc31)-c1csc(n1)CC(NC(=O)C1CC1C)C(=O)N1CCCC(N1)C(=O)OCC(C)(C)C2
Result: 1400

---

- System: K98450-129-R-PDC complex spheroid growth, percent test/control
- ASSAY_OVERVIEW: Anticancer human tumor K98450-129-R-PDC cell line growth inhibition [RAS];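 note: spheroids exposed to agents for seven days before the viability readout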
- CONDITION_CONTEXT: curve of first compound; second compound 0.000949 µM
EXPERIMENTAL_READOUT: pIC50
The value called pIC50 is obtained by taking minus log10 of the concentration in mol/L.

| COMPOUND | NUMERIC_READOUT |
| --- | --- |
| CC1(O)CCCC1n1c(=O)c(C(F)F)cc2cnc(NC3CCN(S(C)(=O)=O)CC3)nc21 (centres undefined) + CCn1c(-c2cccnc2C(C)OC)c2c3cc(ccc31)N1CCOC(CC(NC(=O)C(C(C)C)N(C)C(=O)C3(F)CCN(C(=O)C#CC(C)(C)N(C)C)CC3)C(=O)N3CCCC(N3)C(=O)OCC(C)(C)C2)C1 | 5.36 |
| CCN1CCN(Cc2ccc(Nc3ncc(F)c(-c4cc(F)c5nc(C)n(C(C)C)c5c4)n3)nc2)CC1 + CCn1c(-c2cccnc2C(C)OC)c2c3cc(ccc31)N1CCOC(CC(NC(=O)C(C(C)C)N(C)C(=O)C3(F)CCN(C(=O)C#CC(C)(C)N(C)C)CC3)C(=O)N3CCCC(N3)C(=O)OCC(C)(C)C2)C1 | 6.62 |

Request: Give its pIC50 value. Item: C=CC(=O)N1CCN(c2nc(OCC3CCCN3C)nc3c(F)c(-c4nc(N)cc(C)c4C(F)(F)F)c(Cl)cc23)C(C)C1 (centres undefined) + CCn1c(-c2cccnc2C(C)OC)c2c3cc(ccc31)N1CCOC(CC(NC(=O)C(C(C)C)N(C)C(=O)C3(F)CCN(C(=O)C#CC(C)(C)N(C)C)CC3)C(=O)N3CCCC(N3)C(=O)OCC(C)(C)C2)C1
Result: 6.75

---

viability, T/C values, listed per item
- System: K98450-129-R-PDC complex spheroid growth, percent test/control
- ASSAY_OVERVIEW: Anticancer human tumor K98450-129-R-PDC cell line growth inhibition [RAS];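 note: spheroids exposed to agents for seven days before the viability readout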;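 for viability, T/C: luminescence used as a proxy for viable cell amount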
- CONDITION_CONTEXT: second compound 0.1 µM; first compound 0.1 µM; stronger effect = lower value

Recorded viability, T/C, per entry:
| COMPOUND | ASSAYED_TARGET | RESULT |
| --- | --- | --- |
| C=CC(=O)Nc1cc(Nc2nccc(-c3cn(C)c4ccccc34)n2)c(OC)cc1N(C)CCN(C)C + C#Cc1c(F)ccc2cc(O)cc(-c3ncc4c(N5CC6CCC(C5)N6)nc(OCC56CCCN5CC(F)C6)nc4c3F)c12 | K98450-129-R-PDC complex spheroid growth, percent test/control | 101% |
| CCC(CC)c1cc(NC2CCC(N)C2)n2nccc2n1 (stereo not drawn) + C=CC(=O)N1CCN(c2nc(OCC3CCCN3C)nc3c(F)c(-c4nc(N)cc(C)c4C(F)(F)F)c(Cl)cc23)C(C)C1 | K98450-129-R-PDC complex spheroid growth, percent test/control | 55.4% |

Request: Give its viability, T/C value. Item: C[C@@H](NC(=O)c1ncnc(N)c1Cl)c1ncc(C(=O)Nc2cc(C(F)(F)F)c(Cl)cn2)s1 + C#Cc1c(F)ccc2cc(O)cc(-c3ncc4c(N5CC6CCC(C5)N6)nc(OCC56CCCN5CC(F)C6)nc4c3F)c12
Result: 126%

---

- System: K98450-129-R-PDC complex spheroid growth, percent test/control
- ASSAY_OVERVIEW: Anticancer human tumor K98450-129-R-PDC cell line growth inhibition [RAS];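 note: spheroids exposed to agents for seven days before the viability readout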;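 for viability, T/C: luminescence used as a proxy for viable cell amount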
- CONDITION_CONTEXT: second compound 0.00316 µM; first compound 3.16 µM; stronger effect = lower value
- Excerpt: RAS pathway inhibitors in Combinations in Complex Spheroids A high-throughput screen of multi-cell type tumor spheroids was designed to identify active combinations of RAS pathway inhibitors and targeted small molecules. Complex spheroids include a stromal component modeled by human endothelial cells (HUVEC) and fibroblasts modeled by human mesenchymal stem cells (MSCs). […] Compounds. […] If the clinical Cmax for an agent had not been determined, the highest concentration tested was 10 microM. […]
viability, T/C values, listed per item
Give just the numeric value; % need not be written.

| COMPOUND | UNIT_TEXT | viability, T/C |
| --- | --- | --- |
| CC(C)NCC(C(=O)N1CCN(c2ncnc3c2C(C)CC3O)CC1)c1ccc(Cl)cc1 (centres undefined) + C=CC(=O)N1CCN(c2nc(OCC3CCCN3C)nc3c(F)c(-c4nc(N)cc(C)c4C(F)(F)F)c(Cl)cc23)C(C)C1 | % | 91.4 |
| C[C@@H](NC(=O)c1ncnc(N)c1Cl)c1ncc(C(=O)Nc2cc(C(F)(F)F)c(Cl)cn2)s1 + C=CC(=O)N1CCN(c2nc(OCC3CCCN3C)nc3c(F)c(-c4nc(N)cc(C)c4C(F)(F)F)c(Cl)cc23)C(C)C1 | % | 115 |
| CCC(CC)c1cc(NC2CCC(N)C2)n2nccc2n1 (centres undefined) + C=CC(=O)N1CCN(c2nc(OCC3CCCN3C)nc3c(F)c(-c4nc(N)cc(C)c4C(F)(F)F)c(Cl)cc23)C(C)C1 | % | 78.2 |

Query compound follows.
Request: Give its viability, T/C value. Item: CC(Nc1ccc2c(c1)OCCn1cc(N3C(=O)OCC3C(F)F)nc1-2)C(N)=O (centres undefined) + C=CC(=O)N1CCN(c2nc(OCC3CCCN3C)nc3c(F)c(-c4nc(N)cc(C)c4C(F)(F)F)c(Cl)cc23)C(C)C1
Result: 70

---

- Test system: K98450-129-R-PDC complex spheroid growth, percent test/control
- ASSAY_OVERVIEW: Anticancer human tumor K98450-129-R-PDC cell line growth inhibition [RAS];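 note: spheroids exposed to agents for seven days before the viability readout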;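 for viability, T/C: luminescence used as a proxy for viable cell amount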
- CONDITION_CONTEXT: compound 0.316 µM; stronger effect = lower value
- Source text: RAS pathway inhibitors in Combinations in Complex Spheroids A high-throughput screen of multi-cell type tumor spheroids was designed to identify active combinations of RAS pathway inhibitors and targeted small molecules. Complex spheroids include a stromal component modeled by human endothelial cells (HUVEC) and fibroblasts modeled by human mesenchymal stem cells (MSCs). […] Compounds. […] If the clinical Cmax for an agent had not been determined, the highest concentration tested was 10 microM. […]
viability, T/C values, listed per item

Recorded viability, T/C, per entry:
| COMPOUND | viability, T/C |
| --- | --- |
| C[C@@H](NC(=O)c1ncnc(N)c1Cl)c1ncc(C(=O)Nc2cc(C(F)(F)F)c(Cl)cn2)s1 | 122% [middle of 4 runs] |
| NC1c2ccccc2OC12CCN(c1cnc3c(N4CCCc5ncccc54)n[nH]c3n1)CC2 (stereo not drawn) | 39.9% [middle of 4 runs] |
| C=CC(=O)Nc1cc(Nc2nccc(-c3cn(C)c4ccccc34)n2)c(OC)cc1N(C)CCN(C)C | 70.7% [middle of 4 runs] |
| O=C(c1ccc(F)c(F)c1Nc1ccc(I)cc1F)N1CC(O)([C@@H]2CCCCN2)C1 | 21.8% [middle of 4 runs] |
| C=CC(=O)N1CCN(c2nc(OCC3CCCN3C)nc3c(F)c(-c4nc(N)cc(C)c4C(F)(F)F)c(Cl)cc23)C(C)C1 (stereo not drawn) | 40.2% [middle of 13 runs] |

Request: Give its viability, T/C value. Item: Cc1nc(N2CCC3(CC2)COC(C)C3N)c(CO)nc1Sc1ccnc(N)c1Cl (stereo not drawn)
Result: 86.5% [middle of 4 runs]

Request: Give its viability, T/C value. Item: CC(=O)OC12COC1CC(O)C1(C)C(=O)C(O)C3=C(C)C(OC(=O)C(O)C(NC(=O)OC(C)(C)C)c4ccccc4)CC(O)(C(OC(=O)c4ccccc4)C21)C3(C)C (stereo not drawn)
Result: 65.8% [middle of 4 runs]

Request: Give its viability, T/C value. Item: CC(Nc1ccc2c(c1)OCCn1cc(N3C(=O)OCC3C(F)F)nc1-2)C(N)=O (stereo not drawn)
Result: 91.2% [middle of 4 runs]
